# credit: paper PMC12416549

Listing of entries alongside the reported apparent Kd (screen).
Molecular target: T1, TNFR1 (Homo sapiens, UniProt P19438)
T1 chain: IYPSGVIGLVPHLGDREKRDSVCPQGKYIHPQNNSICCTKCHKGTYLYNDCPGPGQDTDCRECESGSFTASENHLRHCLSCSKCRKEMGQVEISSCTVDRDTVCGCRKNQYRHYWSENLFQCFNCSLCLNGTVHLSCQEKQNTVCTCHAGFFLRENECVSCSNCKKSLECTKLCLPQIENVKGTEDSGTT
Test: yeast display SC50
readout.label: apparent Kd (screen) (nM)

binder: V6R (designed binder) SMEEEREKAAKEYEKKKKEAIEKHLEKLKAKDKEAAERFLKELEEAAKEYAKDEAKTMSEEEAKRRAKKYKEKVLLSELSEEEQKEIKEAEEKLVRTILKYVEEAAK
readout.label: apparent Kd (screen)
unit.name: nM
value.measured: 0.653

binder: L75Y (designed binder) SMEEEVEKAAKEYEKKKKEAIEKHLEKLKAKDKEAAERFLKELEEAAKEYAKDEAKTMSEEEAKRRAKKYKEKVYLSELSEEEQKEIKEAEEKLVRTILKYVEEAAK
readout.label: apparent Kd (screen)
unit.name: nM
value.measured: 1.86

binder: E61W (designed binder) SMEEEVEKAAKEYEKKKKEAIEKHLEKLKAKDKEAAERFLKELEEAAKEYAKDEAKTMSEWEAKRRAKKYKEKVLLSELSEEEQKEIKEAEEKLVRTILKYVEEAAK
readout.label: apparent Kd (screen)
unit.name: nM
value.measured: 1.86

binder: K52N (designed binder) SMEEEVEKAAKEYEKKKKEAIEKHLEKLKAKDKEAAERFLKELEEAAKEYANDEAKTMSEEEAKRRAKKYKEKVLLSELSEEEQKEIKEAEEKLVRTILKYVEEAAK
readout.label: apparent Kd (screen)
unit.name: nM
value.measured: 0.869

binder: E103Q (designed binder) SMEEEVEKAAKEYEKKKKEAIEKHLEKLKAKDKEAAERFLKELEEAAKEYAKDEAKTMSEEEAKRRAKKYKEKVLLSELSEEEQKEIKEAEEKLVRTILKYVQEAAK
readout.label: apparent Kd (screen)
unit.name: nM
value.measured: 0.49

binder: K11G (designed binder) SMEEEVEKAAGEYEKKKKEAIEKHLEKLKAKDKEAAERFLKELEEAAKEYAKDEAKTMSEEEAKRRAKKYKEKVLLSELSEEEQKEIKEAEEKLVRTILKYVEEAAK
readout.label: apparent Kd (screen)
unit.name: nM
value.measured: 0.446
